# target_desc: Geranylgeranyl transferase (Bos taurus, UniProt P29702+Q5EAD5)
# Construct: Geranylgeranyl transferase was purified from bovine brain
# experiment_summary: Geranylgeranyl transferase inhibiting activity (geranylgeranyl pyrophosphate, Ras-CVIL substrate)
# protocol_conditions: geranylgeranyl transferase purified from bovine brain, read-out: GGtase IC50
pIC50: −log10 of the molar value.
assay_readout: pIC50

Answered examples (5):
[[record]]
compound = "CC1(c2cccc3ccccc23)C(=O)N(CCCn2ccnc2)C(=O)N1Cc1ccc(CN)cc1 (stereo not drawn) [Compound 34]"
target_desc = "Geranylgeranyl transferase (Bos taurus, UniProt P29702+Q5EAD5)"
assay_readout = "pIC50"
obs_value = "< 5.00"

[[record]]
compound = "CC1(c2cccc3ccccc23)C(=O)N(CCCn2ccnc2)C(=O)N1Cc1cccc(CNS(C)(=O)=O)c1 (stereo not drawn) [Compound 36]"
target_desc = "Geranylgeranyl transferase (Bos taurus, UniProt P29702+Q5EAD5)"
assay_readout = "pIC50"
obs_value = "< 5.00"

[[record]]
compound = "CSCc1ccc(CN2C(=O)N(CCCn3ccnc3)C(=O)C2(C)c2cccc3ccccc23)cc1 (stereo not drawn) [Compound 27]"
target_desc = "Geranylgeranyl transferase (Bos taurus, UniProt P29702+Q5EAD5)"
assay_readout = "pIC50"
obs_value = "< 5.00"

[[record]]
compound = "N#Cc1ccc(Cn2cncc2CN2C(=O)C(CC(=O)N3CCOCC3)N(Cc3cccc4ccccc34)C2=O)cc1 (stereo not drawn) [Compound 80]"
target_desc = "Geranylgeranyl transferase (Bos taurus, UniProt P29702+Q5EAD5)"
assay_readout = "pIC50"
obs_value = "< 5.00"

[[record]]
compound = "CC1(c2cccc3ccccc23)C(=O)N(CCCn2ccnc2)C(=O)N1Cc1cccnc1 (stereo not drawn) [Compound 18]"
target_desc = "Geranylgeranyl transferase (Bos taurus, UniProt P29702+Q5EAD5)"
assay_readout = "pIC50"
obs_value = "< 5.00"


// query Which value of pIC50 has been reported for CC1(c2cccc3ccccc23)NC(=O)N(CCCc2cncn2Cc2ccc(Br)cc2)C1=O (stereo not drawn) [Compound 68] in the records?
// result < 5.00

// query Which value of pIC50 has been reported for CC1(c2cccc3ccccc23)C(=O)N(CCCc2cncn2Cc2ccc(C#N)cc2)C(=O)N1C(=O)c1ccco1 (stereo not drawn) [Compound 56] in the records?
// result < 5.00

// query Which value of pIC50 has been reported for CCOC(=O)CC1C(=O)N(Cc2cncn2Cc2ccc(C#N)cc2)C(=O)N1Cc1cccc2ccccc12 (stereo not drawn) [Compound 77] in the records?
// result < 5.00

// query Which value of pIC50 has been reported for COC(=O)C(CCSC)NC(=O)CN1C(=O)N(CCCc2cncn2Cc2ccc(C#N)cc2)C(=O)C1(C)c1cccc2ccccc12 (stereo not drawn) [Compound 57] in the records?
// result < 5.00

// query Which value of pIC50 has been reported for CC1(c2cccc3ccccc23)C(=O)N(CCCc2cncn2Cc2ccc(C#N)cc2)C(=O)N1CC(=O)O (stereo not drawn) [Compound 52] in the records?
// result < 5.00

// query Which value of pIC50 has been reported for COC(=O)C(CCSC)NC(=O)CN1C(=O)N(Cc2cncn2Cc2ccc(C#N)cc2)C(=O)C1(C)c1cccc2ccccc12 (stereo not drawn) [Compound 7] in the records?
// result < 5.00

// query Which value of pIC50 has been reported for COC(=O)C[C@H]1C(=O)N(Cc2cncn2Cc2ccc(C#N)cc2)C(=O)N1Cc1cccc2ccccc12 [Compound 79] in the records?
// result < 5.00
